assay: Acute toxicity test in mice administered intravenously; assay type: in vivo; settings: male, ICR, mouse, in vivo, iv
Where a name gives a salt, the structure may show the parent alone.
QUANTITY: LD50 (mg/kg)
The figure you give is taken to be in mg/kg; do not add the unit.

Entry Nc1c(Br)cc(Br)cc1CN[C@H]1CC[C@H](O)CC1 [Ambroxol, ambroxol hydrochloride, reference compound] has what LD50?
268

Entry CN(Cc1cc(Br)cc(Br)c1N)[C@H]1CC[C@H](S)CC1.Cl has what LD50?
523

Entry Nc1c(Br)cc(Br)cc1CN[C@H]1CC[C@H](SCCCO)CC1 has what LD50?
507

Entry Cl.Nc1c(Br)cc(Br)cc1CN[C@H]1CC[C@H](S)CC1 has what LD50?
453
